Where these numbers come from: paper PMC10397247

This section presents binders with their documented interaction score values.
- test-system: T1, O5
- T1 chain: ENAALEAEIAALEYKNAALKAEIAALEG
- assay-details: two-hybrid library CC0;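 note: natural log of median RNA to DNA barcode read ratio; higher means stronger binding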
- test-parameters: mean of both orientations
// return a plain number; no unit text

Illustrative cases are given below, each with its answer.
ENAALEAEIAALEYKNAALKAEIAALEG [O5] ... -2.78
KNAALKAKIAALKYKNAALKAEIAALEG [O13] ... -2.45
KIAALKAEIAALEYKNAALKAKNAALKG [O4] ... -2.68
ENAALEAEIAALEYENAALEAKIAALKG [O14] ... -0.24
ENAALEAKNAALKYKIAALKAKIAALKG [O2] ... -2.66
EIAALEAKIAALKYKNAALKAKNAALKG [O12] ... -2.71
KIAALKAKNAALKYEIAALEAKNAALKG [O16] ... -2.68
KNAALKAENAALEYKIAALKAKIAALKG [O10] ... -1.82

# interaction score (binder: EIAALEAKIAALKYENAALEAENAALEG [O3] ) is -2.78

Lab note: measured interaction score of KNAALKAENAALEYEIAALEAEIAALEG [O1] was -2.77

interaction score for KIAALKAEIAALEYENAALEAENAALEG [O11] is -2.71

Measured interaction score of EIAALEAENAALEYKIAALKAENAALEG [O15] : -2.15
